Sourced from patent US20180258153A1

STUDY SYSTEM: T1, human GLP-1 receptor (human, UniProt P43220 24-463)
T1 construct: whole, on cells
ASSAY INFO: SPA competition, displacement of 125I-GLP-1(7-36)NH2 from BHK membranes with human GLP-1 receptor; low HSA (max. 0.001%)
Non-standard residues stand in square brackets, D forms with d. Groups on a side chain read outwards from the residue. No end group written: not given here. *: point of attachment. C20 diacid = O=C(O)CCCCCCCCCCCCCCCCCCC(=O)*; Desaminohistidyl = O=C(CCc1c[nH]cn1)*; Trx = NC[C@H]1CC[C@H](C(=O)O)CC1; AEEA = NCCOCCOCC(=O)O; Aib = CC(C)(N)C(=O)O
PARAMETER MEASURED: IC50 (nM)
Write down the numeric answer in nM and omit the unit.

Please review the entries below; each comes with its answer.
Record summary for [Desaminohistidyl][Aib]EGTFTSDVSSYLEEQAAREFIAWLVRGRGGK([AEEA-AEEA-AEEA-AEEA-Lys-code γGlu-Trx-C20 diacid),(γGlu-Trx-C20 diacid]) (also: branched side chain on Lys39: two identical arms on eps-Lys(Bis), also called Chem. 26; [Imp7,Aib8,Glu22,Arg26,Arg34]-GLP-1-(7-37)-peptidyl-Gly-N{Epsilon}-acylated Lys) [GLP-1 derivative of Example 6] : reported IC50 = 1

Record summary for HXEGTFTSDVSSYLEEQAAREFIAWLVRGRK (not fully specified; Aib at position 8 (GLP-1 numbering); epsilon-amino of Lys37 acylated with branched side chain: Pre-linker 4xeps-Lys; Branched linker eps-Lys(Bis); two Post-linkers Trx-gGlu, each carrying a C20 diacid Protractor, also called Chem. 30; N{Epsilon-37}-acylated [Aib8,Glu22,Arg26,Arg34,Lys37]-GLP-1-(7-37)-peptide) [GLP-1 derivative of Example 10] : reported IC50 = 19

Record summary for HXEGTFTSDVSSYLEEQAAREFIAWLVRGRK (not fully specified; Aib at position 8 (GLP-1 numbering); epsilon-amino of Lys37 acylated with branched side chain: Pre-linker 4xAdo; Branched linker eps-Lys(Bis); two Post-linkers Trx-gGlu-2xAdo, each carrying a C20 diacid Protractor, also called Chem. 35; N{Epsilon-37}-acylated [Aib8,Glu22,Arg26,Arg34,Lys37]-GLP-1-(7-37)-peptide) [GLP-1 derivative of Example 15] : reported IC50 = 0.87

Record summary for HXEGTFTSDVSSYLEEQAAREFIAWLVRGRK (Aib at position 8 (GLP-1 numbering); epsilon-amino of Lys37 acylated with branched side chain: Pre-linker 4xAdo; Branched linker eps-Lys(Bis); two Post-linkers Trx-gGlu, each carrying a C20 diacid Protractor, also called Chem. 28; N{Epsilon-37}-acylated [Aib8,Glu22,Arg26,Arg34,Lys37]-GLP-1-(7-37)-peptide) [GLP-1 derivative of Example 8] : reported IC50 = 1.1

Record summary for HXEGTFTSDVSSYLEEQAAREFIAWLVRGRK (Aib at position 8 (GLP-1 numbering); epsilon-amino of Lys37 acylated with branched side chain: Pre-linker 6xAdo; Branched linker eps-Lys(Bis); two Post-linkers Trx-gGlu, each carrying a C20 diacid Protractor, also called Chem. 32; N{Epsilon-37}-acylated [Aib8,Glu22,Arg26,Arg34,Lys37]-GLP-1-(7-37)-peptide) [GLP-1 derivative of Example 12] : reported IC50 = 0.63

Attention now turns to another entry.
Record summary for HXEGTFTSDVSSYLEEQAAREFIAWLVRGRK (not fully specified; Aib at position 8 (GLP-1 numbering); epsilon-amino of Lys37 acylated with branched side chain: Pre-linker 4xAdo; Branched linker eps-Lys(Bis); two Post-linkers Trx-gGlu-Ado, each carrying a C20 diacid Protractor, also called Chem. 41; N{Epsilon-37}-acylated [Aib8,Glu22,Arg26,Arg34,Lys37]-GLP-1-(7-37)-peptide) [GLP-1 derivative of Example 21] : reported IC50 = 1.5
